Ref: patent US20250221966A1

# system: human RXFP1 (Homo sapiens)
# Construct: expressed in transfected cells
# Sequence (Q9HBX9 whole entry): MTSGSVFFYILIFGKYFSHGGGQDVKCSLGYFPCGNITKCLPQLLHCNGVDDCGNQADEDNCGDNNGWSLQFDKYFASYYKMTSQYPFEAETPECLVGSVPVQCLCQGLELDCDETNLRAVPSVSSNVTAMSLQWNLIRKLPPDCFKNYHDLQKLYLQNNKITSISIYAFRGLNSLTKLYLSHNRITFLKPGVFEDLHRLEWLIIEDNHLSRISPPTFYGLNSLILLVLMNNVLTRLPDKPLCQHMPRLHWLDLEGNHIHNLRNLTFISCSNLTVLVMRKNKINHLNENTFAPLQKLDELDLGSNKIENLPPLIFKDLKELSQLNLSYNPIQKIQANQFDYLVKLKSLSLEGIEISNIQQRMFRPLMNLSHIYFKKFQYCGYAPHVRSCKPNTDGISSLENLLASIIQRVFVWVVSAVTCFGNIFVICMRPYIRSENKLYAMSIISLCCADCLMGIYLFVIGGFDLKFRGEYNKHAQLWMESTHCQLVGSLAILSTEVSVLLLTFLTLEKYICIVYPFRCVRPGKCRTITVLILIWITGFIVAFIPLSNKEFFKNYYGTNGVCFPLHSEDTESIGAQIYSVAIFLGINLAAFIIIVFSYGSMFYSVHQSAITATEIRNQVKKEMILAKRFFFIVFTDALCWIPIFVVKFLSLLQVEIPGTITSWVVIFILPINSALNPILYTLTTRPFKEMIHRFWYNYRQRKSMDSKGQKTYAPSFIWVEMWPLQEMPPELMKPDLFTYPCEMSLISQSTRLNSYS
# assay_notes: RXFP1 cAMP assay (hRXFP1 HEK293 cAMP assay, HTRF)
# Type: cell-based
# condition_parameters: HEK293 cells stably expressing human RXFP1, 30 min at room temperature, read-out: cAMP hRXFP1 HEK293 Assay EC50
# Procedure: RXFP1 Cyclic Adenosine Monophosphate (cAMP) Assays. […] Cells were dissociated and suspended in assay buffer. The assay buffer was HBSS buffer (with calcium and magnesium) containing 20 mM HEPES, 0.05% BSA, and 0.5 mM IBMX. […] The level of intracellular cAMP was determined using the HTRF HiRange cAMP assay reagent kit (Cisbio) according to manufacturer's instructions. […]
pEC50: −log10 of the molar value.
measure: pEC50

A. COc1cc(F)c(F)cc1C(=O)N[C@@H]1C2CCC(/C2=C/C2=CCCC2)[C@@H]1C(=O)Nc1ccc(F)c(C(F)(F)F)c1 (stereo partly drawn)
B. COc1cc(F)c(F)cc1C(=O)N[C@@H]1C2CCC(/C2=C/C2=CCOCC2)[C@@H]1C(=O)Nc1ccc(F)c(C(F)(F)F)c1 (stereo partly drawn)
Query: From the items above, decide which of A and B has the lower pEC50 reading. // respond with label for picked entry
Response: A
